Biological target: E3 ubiquitin-protein ligase pellino homolog 1 (Homo sapiens)
Sequence (Q96FA3 whole entry, the tested form may be a part): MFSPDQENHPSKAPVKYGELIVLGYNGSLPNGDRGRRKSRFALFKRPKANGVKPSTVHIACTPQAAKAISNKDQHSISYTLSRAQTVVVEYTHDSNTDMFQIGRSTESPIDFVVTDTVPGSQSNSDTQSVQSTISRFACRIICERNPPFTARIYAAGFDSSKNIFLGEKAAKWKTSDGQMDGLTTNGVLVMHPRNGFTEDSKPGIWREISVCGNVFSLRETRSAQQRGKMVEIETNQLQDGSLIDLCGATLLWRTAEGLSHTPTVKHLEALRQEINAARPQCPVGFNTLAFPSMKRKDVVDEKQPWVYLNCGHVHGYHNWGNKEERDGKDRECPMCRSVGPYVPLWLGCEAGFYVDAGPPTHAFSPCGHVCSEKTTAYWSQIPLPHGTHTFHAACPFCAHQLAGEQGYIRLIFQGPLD
Test: Binding affinity to PELI1 FHA domain (unknown origin) expressed in Escherichia coli BL21(DE3) competent cell measured after 1 min by fluorescence quenching assay
Conditions: read-out: Kd
attributeMeasured: pKd
For clarity, pKd is expressed as the negative log10 of concentration in mol/L.

Which pKd reading was recorded for the compound CCCNC(=O)/C=C/c1cc(/C=C/c2cc(O)cc(O)c2)ccc1O ?
4.35

Which pKd reading was recorded for the compound O=C(/C=C/c1cc(/C=C/c2cc(O)cc(O)c2)ccc1O)N1CCCCC1 ?
4.42

Which pKd reading was recorded for the compound O=C(/C=C/c1ccccc1)Nc1cc(O)ccc1/C=C/c1cc(O)cc(O)c1 ?
4.29

Which pKd reading was recorded for the compound NC(=O)/C=C/c1cc(O)ccc1/C=C/c1cc(O)cc(O)c1 ?
4.40

Which pKd reading was recorded for the compound O=C(/C=C/c1cc(O)ccc1/C=C/c1cc(O)cc(O)c1)N1CCCCC1 ?
4.02

Which pKd reading was recorded for the compound CNC(=O)/C=C/c1ccc(O)c(/C=C/c2cc(O)cc(O)c2)c1 ?
4.22

Which pKd reading was recorded for the compound CCCNC(=O)/C=C/c1cc(O)ccc1/C=C/c1cc(O)cc(O)c1 ?
4.15

Which pKd reading was recorded for the compound CNC(=O)/C=C/c1ccccc1 ?
3.67

Which pKd reading was recorded for the compound C/C=C/C(=O)Nc1ccc(O)c(/C=C/c2cc(O)cc(O)c2)c1 ?
4.19

Which pKd reading was recorded for the compound C/C=C/C(=O)Nc1cc(O)ccc1/C=C/c1cc(O)cc(O)c1 ?
4.06

---

Target: E3 ubiquitin-protein ligase pellino homolog 1 (Homo sapiens)
Experiment: Binding affinity to PELI1 FHA domain (unknown origin) expressed in Escherichia coli BL21(DE3) competent cell measured after 1 min by fluorescence quenching assay
Details: read-out: Kd
attributeMeasured: Kd (µM)
State just the number; it will be interpreted in µM.

Which Kd reading was recorded for the molecule O=C(/C=C/c1ccccc1)Nc1cc(/C=C/c2cc(O)cc(O)c2)ccc1O ?
124

Which Kd reading was recorded for the molecule CNC(=O)/C=C/c1cc(O)ccc1/C=C/c1cc(O)cc(O)c1 ?
39.3

Which Kd reading was recorded for the molecule O=c1ccc2ccc(O)c(O)c2o1 [DAPHNETIN] ?
336

Which Kd reading was recorded for the molecule CNC(=O)/C=C/c1cc(/C=C/c2cc(O)cc(O)c2)ccc1O ?
42.3

Which Kd reading was recorded for the molecule COc1cc(C=O)ccc1O [VANILLIN] ?
228

Which Kd reading was recorded for the molecule C/C=C/C(=O)Nc1cc(/C=C/c2cc(O)cc(O)c2)ccc1O ?
126

Which Kd reading was recorded for the molecule O=C(/C=C/c1ccc(O)c(/C=C/c2cc(O)cc(O)c2)c1)N1CCCCC1 ?
26.9

Which Kd reading was recorded for the molecule CN(C)C(=O)/C=C/c1cc(O)ccc1/C=C/c1cc(O)cc(O)c1 ?
104

Which Kd reading was recorded for the molecule Oc1ccc(/C=C/c2cc(O)cc(O)c2)cc1 [RESVERATROL] ?
125

Which Kd reading was recorded for the molecule NC(=O)/C=C/c1ccc(O)c(/C=C/c2cc(O)cc(O)c2)c1 ?
55.7

Which Kd reading was recorded for the molecule O=C(Nc1ccccc1)c1cccnc1 [NICOTINANILIDE] ?
336
